Target: T1, recombinant human GM-CSF protein, Myc-tagged/His-tagged (human, UniProt P04141 18-144)
T1 construct: also called Granulocyte Macrophage Colony Stimulating Factor; CSF2; not shown: Myc tag and His tag from the expression vector
T1 sequence (P04141 18-144): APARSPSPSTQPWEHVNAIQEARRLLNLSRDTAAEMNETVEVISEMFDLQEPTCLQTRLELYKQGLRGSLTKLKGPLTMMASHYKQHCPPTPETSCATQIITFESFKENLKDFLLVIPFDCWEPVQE
Assay: ELISA on GM-CSF, relative to G7

binder	Relative binding
YKKLSYLDFQYQLD (also called G7 variant with lysine in position 2) [G7K2]	2
KYQKLSYLDFQYQLD (also called G7K-1 variant) [G7K-1]	95
YQKLSYLDFQKQLD [G7K11]	108
YQKLSYLDFQYQKD [G7K13]	108
YQKLSYLDFQYQKDK [G7K15]	60

src = patent US20230054634A1
